meta.source: paper PMC7826789

test system: CDK4-cyclinD3; conditions: Compound Concentration (nM):1000;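 note: KINOMEscan scanMAX binding as percent activity remaining versus control; lower means stronger binding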
Recorded measurements of Percent Control, one per entry

| Compound | Test system | Percent Control [%] |
| --- | --- | --- |
| Cl.O=C(Nc1ccc(Oc2ccc3[nH]c(NC(=O)c4ccccc4)nc3c2)cc1)Nc1cc(C(F)(F)F)ccc1F [GW709042A] | CDK4-cyclinD3 | 100 |
| COc1ccc2cc(-c3c(-c4ccncc4)nc(-c4ccc(S(C)(=O)=O)cc4C)n3C)ccc2c1 | CDK4-cyclinD3 | 90 |
| CC(C)COC(=O)c1ccc2c(c1)/C(=C/Nc1ccc(S(N)(=O)=O)cc1)C(=O)N2 [GW416981X] | CDK4-cyclinD3 | 13 |
| COc1cc(/C=N/Nc2ncnc3[nH]ncc23)ccc1O [GW578748X] | CDK4-cyclinD3 | 100 |
